# System: peripheral blood neutrophils
# experiment_summary: Chemiluminescence (reactive oxidant production) of peripheral blood neutrophils stimulated with calcium ionophore
# Type: cell-based
# assay_setup: Homo sapiens, Neutrophil, 10 mM zwitterionic compound, normal neutrophils, mean ± S.E.M.; read-out: Chemiluminescence activity of normal neutrophils
activity at 10000 µM of 5% or higher: t. Under 5%: f.

{"molecule": "O=S(=O)(O)CCCNC1CCCCC1 [CAPS, 3-(cyclohexylamino)propanesulphonic acid]", "group": "t"}
{"molecule": "O=S(=O)(O)CCCN1CCN(CCO)CC1 [(H)EPPS]", "group": "t"}
{"molecule": "O=S(=O)(O)CCN1CCOCC1 [MES, 2(N-morpholino)ethanesulphonic acid]", "group": "f"}
{"molecule": "O=S(=O)(O)CCNC1CCCCC1 [CHES, 2-(cyclohexylamino)ethanesulphonic acid]", "group": "t"}
{"molecule": "NC(=O)CNCCS(=O)(=O)O [ACES]", "group": "t"}
{"molecule": "O=S(=O)(O)CCCN1CCOCC1 [MOPS, 3-(N-morpholino)propanesulphonic]", "group": "t"}
{"molecule": "O=S(=O)(O)CCNC(CO)(CO)CO [TES]", "group": "t"}
{"molecule": "NC(=O)CN(CC(=O)O)CC(=O)O [ADA, N-(2-acetamido)iminodiacetic acid]", "group": "f"}

**Q:** Determine whether this molecule has activity at 10000 µM no lower than 5%: O=S(=O)(O)CCN1CCN(CCS(=O)(=O)O)CC1 [PIPES]
**A:** f

Taken from patent US5248680A.
